systemUnderTest: T1, human FLT3 (hFLT3) (human, UniProt P36888 27-543)
T1 construct: also called huFlt3; Fms-Like Tyrosine Kinase 3
T1 sequence (looked up): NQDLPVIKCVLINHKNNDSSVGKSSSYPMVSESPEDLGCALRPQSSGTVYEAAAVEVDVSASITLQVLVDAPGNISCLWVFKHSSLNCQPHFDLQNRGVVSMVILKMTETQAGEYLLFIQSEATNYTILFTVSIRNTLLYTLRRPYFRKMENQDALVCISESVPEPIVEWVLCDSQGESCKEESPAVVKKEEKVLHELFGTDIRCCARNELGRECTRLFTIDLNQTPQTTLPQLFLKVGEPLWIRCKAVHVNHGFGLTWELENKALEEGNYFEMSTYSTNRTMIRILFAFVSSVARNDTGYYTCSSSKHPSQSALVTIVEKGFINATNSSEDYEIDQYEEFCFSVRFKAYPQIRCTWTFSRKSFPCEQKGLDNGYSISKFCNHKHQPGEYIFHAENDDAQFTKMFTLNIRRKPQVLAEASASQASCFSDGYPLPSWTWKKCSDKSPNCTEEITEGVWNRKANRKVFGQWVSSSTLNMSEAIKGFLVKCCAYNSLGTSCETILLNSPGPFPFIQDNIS
measurementNotes: SPR (Biacore T200), 37 C; IgG captured on anti-human Fc, hFLT3 as analyte
measurementName: kon (M⁻¹ s⁻¹)
Answers are plain numbers, in M⁻¹ s⁻¹.

For every record below, what is its kon?
1. P5F7 (IgG format) (antibody, V domains shown, IgG format, captured by anti-human Fc; the VLs differ at the N-terminus; the first entry is used) VH: EVQLLESGGGLVQPGGSLRLSCAASGFTFSSYAMNWVRQAPGKGLEWVSSISGGGRSTYYADSVKGRFTISRDNSKNTLYLQMNSLRAEDTAVYYCARDLSPSDVGWGYGFDIWGQGTLVTVSS VL: EIVLTQSPATLSLSPGERATLSCRASQSVSSNLAWYQQKPGQAPRLLIYDTFTRATGIPARFSGSGSGTDFTLTISRLEPEDFAVYYCQQYGSSPPTFGQGTRLEIK
2. P7F9 (IgG format) (antibody, V domains shown, IgG format, captured by anti-human Fc) VH: EVQLLESGGGLVQPGGSLRLSCAASGFTFSSYAMSWVRQAPGKGLEWVSAIGGSGGSTYYADSVKGRFTISRDNSKNTLYLQMNSLRAEDTAMYYCARDYYAFSDPAYGGMDVWGQGTLVTVSS VL: NFMLTQPHSVSESPGKTVTISCTRSSGSIASNYVQWYQQKPGQAPVLVVYDDSDRPSGIPERFSGSNSGNTATLTISRVEAGDEADYYCQVWDSSSDHWVFGGGTKLTVL
3. P7H3 (IgG format) (antibody, V domains shown, IgG format, captured by anti-human Fc) VH: EVQLLESGGGLVQPGGSLRLSCAASGFTFSSYAMHWVRQAPGKGLEWVSAISGSGGSTYYADSVKGRFTISRDNSKNTLYLQMNSLRAEDTAVYYCARGTRWWWGDAFDHWGQGTLVTVSS VL: QSVLTQPPSVSVAPGKTARITCGGNNIGSKSVHWYQQKPGQAPVLVIYYDSDRPSGIPERFSGSNSGNTATLTISRVEAGDEADYYCQVWDSSTAWVFGGGTKLTVL

1. 636000
2. 110000
3. 990000

From: patent US20230059489A1
